System: MIA (pancreatic cancer) cell genome
MEASUREMENT PROTOCOL: ctDNA coculture with MIA cells, whole genome sequencing: genomic insertion sites, transposons at insertion points and SNVs (pancreatic cancer)
Format: cell-based, human
RECORDED CONDITIONS: TABLE 4; number of single nucleotide variants (SNVs or SNPs) identified; polynucleotides for pancreatic cancer cells
QUANTITY: No. SNP

I have this molecule here, 49 (nucleic acid, listed as Homo sapiens) CTTTAACCTCCTTGTTACGTTTGTCTCTTCCAGAATCGAAGCTGTAAAACTACAAATGGTTCTTCAAATGGAGCCCCAGATGCAGTCCATGACTAAGATCTACCGCGGACCCCTGGACTGGCCTGCTAGCCCATGCTCCAATGTTGATGACATTGAAGGCACCCCTCCCAAGGAAATCTCAACTGCACGACCCCTACTATGCCCCAATTCAGCATGAAGCAGTTAAGAGCGGTTGTCAGCCAACCTCCCCAACAGCACTTGGGTTTTCCTGTTGAGAGGTGGGACTGAGAGA , and I need its recorded No. SNP.
5
